Target: T1, TIGIT (UniProt Q495A1 22-141, limits assumed)
T1 construct: also called T cell immunoreceptor with Ig and ITIM domains; hTIGIT
T1 sequence (looked up): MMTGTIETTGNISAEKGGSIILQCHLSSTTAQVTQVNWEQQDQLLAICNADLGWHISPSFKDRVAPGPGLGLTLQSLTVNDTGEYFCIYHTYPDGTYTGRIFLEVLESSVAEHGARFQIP
Test: SPR (Carterra)
property-label: koff (s⁻¹)
Kindly answer with a numeric value in s⁻¹, unit omitted.

TIGIT-211-40 (antibody, V domains shown) VH: EVQLLESGGGLVQPGGSLRLSCAASGFTFSRYAMNWVRQAPGKGLEWVSEISPSGKKKYYADSVKGRFTISRDNSKNTLYLQMNSLRAEDTAVYYCAKSSFDKYNFDYWGQGTLVTVSS VL: DIQMTQSPSSLSASVGDRVTITCRASQDIGNFLNWYQQKPGKAPKLLIYRTSWLQSGVPSRFSGSGSGTDFTLTISSLQPEDFATYYCQQRSSYPPTFGQGTKVEIK    0.0405
TIGIT-211-45 (antibody, V domains shown) VH: EVQLLESGGGLVQPGGSLRLSCAASGFTFRRYVMGWVRQAPGKGLEWVSEISPSGGYTYYADSVKGRFTISRDNSKNTLYLQMNSLRAEDTAVYYCAKRWTFNTAFDYWGQGTLVTVSS VL: DIQMTQSPSSLSASVGDRVTITCRASQSIRRYLNWYQQKPGKAPKLLIYDASNLQSGVPSRFSGSGSGTDFTLTISSLQPEDFATYYCQQSYDFPRTFGQGTKVEIK    0.00125

The measured koff associated with TIGIT-211-28 (antibody, V domains shown) VH: EVQLLESGGGLVQPGGSLRLSCAASGFTFSTYAMSWVRQAPGKGLEWVSEISPSGGYTYYADSVKGRFTISRDNSKNTLYLQMNSLRAEDTAVYYCAKVKLGGGPNFDYWGQGTLVTVSS VL: DIQMTQSPSSLSASVGDRVTITCQGASLRNYYASWYQQKPGKAPKLLIYDTSKVASGVPSRFSGSGSGTDFTLTISSLQPEDFATYYCFQGSHIPYTFGQGTKVEIK reads 0.0016

The measured koff associated with TIGIT-211-69 (antibody, V domains shown) VH: EVQLLESGGGLVQPGGSLRLSCAASGFTFGNYRMTWVRQAPGKGLEWVGVIWGGGGTYYADSVKGRFTISRDNSKNTLYLQMNSLRAEDTAVYYCARIFSYALDYWGQGTLVTVSS VL: DIQMTQSPSSLSASVGDRVTITCRASQNIRSYLNWYQQKPGKAPKLLIYGASTLQSGVPSRFSGSGSGTDFTLTISSLQPEDFATYYCQQSYENPLTFGQGTKVEIK reads 0.0622

The measured koff associated with TIGIT-211-51 (antibody, V domains shown) VH: EVQLLESGGGLVQPGGSLRLSCAASGFTFHKYGMAWVRQAPGKGLEWVSTISSGGGYTYYPDSVKGRFTISRDNSKNTLYLQMNSLRAEDTAVYYCARDTYLHFDYWGQGTLVTVSS VL: DIQMTQSPSSLSASVGDRVTITCRASQGVRTSLAWYQQKPGKAPKLLIYAKNNRPSGVPSRFSGSGSGTDFTLTISSLQPEDFATYYCQQSYSAPYTFGQGTKVEIK reads 0.0335
